// reported IC50 for each item listed
# Target Or Test System: KRAS G13C (Homo sapiens, UniProt P01116+P62937, G13C)
# Sequence (P01116 1-169 isoform P01116-2 G13C): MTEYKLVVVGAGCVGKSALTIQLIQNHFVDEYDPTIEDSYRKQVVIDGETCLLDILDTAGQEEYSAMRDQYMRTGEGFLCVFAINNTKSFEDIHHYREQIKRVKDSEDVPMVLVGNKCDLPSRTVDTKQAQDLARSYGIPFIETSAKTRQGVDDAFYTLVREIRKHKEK
# Sequence (P62937 whole entry): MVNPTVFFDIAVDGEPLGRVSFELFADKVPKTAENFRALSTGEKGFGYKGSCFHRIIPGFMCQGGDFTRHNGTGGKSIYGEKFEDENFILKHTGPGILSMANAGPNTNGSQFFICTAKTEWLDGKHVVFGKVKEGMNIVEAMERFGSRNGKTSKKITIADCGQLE
# Protocol Summary: Disruption of BRAF RBD interaction with Ras (FRET / MOA assay, with Cyclophilin A)
# Format: biochemical
# Measurement Parameters: read-out: KRAS G13C FRET data, IC50

{"Smiles Code": "CCn1c(-c2cccnc2[C@H](C)OC)c2c3cc(ccc31)-c1csc(n1)C[C@H](NC(=O)[C@H](C(C)C)N(C)C(=O)N1CC3(CCN(C)CC3)C1)C(=O)N1CCC[C@H](N1)C(=O)OCC(C)(C)C2", "IC50": "100 to 1000 nM"}
{"Smiles Code": "CCn1c(-c2cccnc2[C@H](C)OC)c2c3cc(ccc31)-c1cc(O)cc(c1)C[C@H](NC(=O)[C@H](C(C)C)N(C)C(=O)[C@H]1CCN(C(=O)OC(C)(C)C)C1)C(=O)N1CCC[C@H](N1)C(=O)OCC(C)(C)C2", "IC50": "10 to 100 nM"}

* * *

# Target Or Test System: NRAS G12C (Homo sapiens, UniProt P01111+P62937, G12C)
# Sequence (P01111 whole entry G12C, one chain of several): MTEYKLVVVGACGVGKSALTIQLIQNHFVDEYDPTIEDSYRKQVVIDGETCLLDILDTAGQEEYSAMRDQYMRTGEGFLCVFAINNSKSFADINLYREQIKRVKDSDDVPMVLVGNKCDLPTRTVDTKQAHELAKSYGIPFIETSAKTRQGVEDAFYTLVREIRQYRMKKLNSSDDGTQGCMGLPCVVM
# Protocol Summary: Disruption of BRAF RBD interaction with Ras (FRET / MOA assay, with Cyclophilin A)
# Format: biochemical
# Measurement Parameters: NRAS G12C; read-out: NRAS G12C FRET data IC50
pIC50: −log10 of the molar value.
// reported pIC50 for each item listed

{"Compound": "CCn1c(-c2cc(N3CCN(C)CC3)cnc2[C@H](C)OC)c2c3cc(ccc31)-c1csc(n1)C[C@H](NC(=O)[C@H](C(C)C)N(C)C(=O)N1CC(N(C)C)C1)C(=O)N1CCC[C@H](N1)C(=O)OCC(C)(C)C2 (atropisomer, axis not shown) [Example A477]", "pIC50": "7.00 to 8.00"}
{"Compound": "C=CC(=O)N1CC(NC[C@H](C(=O)N[C@H]2Cc3cc(O)cc(c3)-c3ccc4c(c3)c(c(-c3cccnc3COC)n4CC)CC(C)(C)COC(=O)[C@@H]3CCCN(N3)C2=O)C(C)C)C1 [Example A174]", "pIC50": "5.00 to 6.00"}
{"Compound": "CCn1c(-c2cccnc2[C@H](C)OC)c2c3cc(ccc31)-c1csc(n1)C[C@H](NC(=O)[C@H](C(C)C)N(C)C(=O)N1CC[C@@H]1C(=O)NC)C(=O)N1CCC[C@H](N1)C(=O)OCC(C)(C)C2 [Example A281]", "pIC50": "5.00 to 6.00"}
{"Compound": "CCn1c(-c2cnccc2COC)c2c3cc(ccc31)-c1cc(O)cc(c1)C[C@H](NC(=O)[C@H](C(C)C)N(C)C(=O)[C@H]1CCN(S(=O)(=O)N3CC(N)C3)C1)C(=O)N1CCC[C@H](N1)C(=O)OCC(C)(C)C2 [Example A35]", "pIC50": "6.00 to 7.00"}
{"Compound": "CCn1c(-c2cccnc2[C@H](C)OC)c2c3cc(ccc31)-c1csc(n1)C[C@H](NC(=O)[C@H](C(C)C)N(C)C(=O)N1CC(S(=O)(=O)NC)C1)C(=O)N1CCC[C@H](N1)C(=O)OCC(C)(C)C2 (atropisomer, axis not shown) [Example A549]", "pIC50": "7.00 to 8.00"}
{"Compound": "C=CC(=O)N1CCO[C@H]2CN(C(=O)N(C)[C@H](C(=O)N[C@H]3Cc4cccc(n4)-c4ccc5c(c4)c(c(-c4cccnc4[C@H](C)OC)n5CC)CC(C)(C)COC(=O)C4CCCN(N4)C3=O)C(C)C)C[C@H]21 (some centres unmarked) [Example A597]", "pIC50": "7.00 to 8.00"}
{"Compound": "CCn1c(-c2cccnc2[C@H](C)OC)c2c3cc(ccc31)-c1cc(O)cc(c1)C[C@H](NC(=O)[C@H](C(C)C)N(C)C(=O)C1(N)CC1)C(=O)N1CCC[C@H](N1)C(=O)OCC(C)(C)C2 [Example A168]", "pIC50": "7.00 to 8.00"}
{"Compound": "CCn1c(-c2cccnc2[C@H](C)OC)c2c3cc(ccc31)-c1csc(n1)C[C@H](NC(=O)[C@H](C(C)C)N(C)C(=O)N1CC[C@@H](O)C1)C(=O)N1CCC[C@H](N1)C(=O)OCC(C)(C)C2 (atropisomer, axis not shown) [Example A376]", "pIC50": "7.00 to 8.00"}

* * *

# Target Or Test System: KRAS G12V (Homo sapiens, UniProt P01116+P62937, G12V)
# Sequence (P01116 1-169 isoform P01116-2 G12V limits assumed): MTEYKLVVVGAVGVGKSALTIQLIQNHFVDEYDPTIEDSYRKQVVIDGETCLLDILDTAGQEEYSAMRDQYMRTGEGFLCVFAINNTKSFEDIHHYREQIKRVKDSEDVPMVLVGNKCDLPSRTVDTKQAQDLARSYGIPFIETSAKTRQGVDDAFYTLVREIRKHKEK
# Sequence (P62937 whole entry): as the sequence (P62937 whole entry) above
# Protocol Summary: Disruption of BRAF RBD interaction with Ras (FRET / MOA assay, with Cyclophilin A)
# Assay type: biochemical
# Measurement Parameters: KRAS G12V FRET data IC50, KRAS G12V

{"Compound": "CCn1c(-c2cccnc2[C@H](C)OC)c2c3cc(ccc31)-c1csc(n1)C[C@H](NC(=O)[C@H](C(C)C)N(C)C(=O)N1CC(N)(C#N)C1)C(=O)N1CCC[C@H](N1)C(=O)OCC(C)(C)C2", "IC50": "100 to 1000 nM"}
{"Compound": "CCn1c(-c2cnccc2COC)c2c3cc(ccc31)-c1cc(O)cc(c1)C[C@H](NC(=O)[C@H](C(C)C)N(C)C(=O)[C@H]1CCN(C=O)C1)C(=O)N1CCC[C@H](N1)C(=O)OCC(C)(C)C2", "IC50": "100 to 1000 nM"}
{"Compound": "CCn1c(-c2cnccc2COC)c2c3cc(ccc31)-c1cc(O)cc(c1)C[C@H](NC(=O)[C@H](C(C)C)N(C)C(=O)[C@H]1CCN(C)C1)C(=O)N1CCC[C@H](N1)C(=O)OCC(C)(C)C2", "IC50": "1000 to 10000 nM"}
{"Compound": "CCn1c(-c2cnccc2COC)c2c3cc(ccc31)-c1cc(O)cc(c1)C[C@H](NC(=O)[C@H](C(C)C)N(C)C(=O)[C@H]1CCN(S(C)(=O)=O)C1)C(=O)N1CCC[C@H](N1)C(=O)OCC(C)(C)C2", "IC50": "100 to 1000 nM"}
{"Compound": "CCN1C[C@@H](C(=O)N(C)[C@H](C(=O)N[C@H]2Cc3cc(O)cc(c3)-c3ccc4c(c3)c(c(-c3cnccc3COC)n4CC)CC(C)(C)COC(=O)[C@@H]3CCCN(N3)C2=O)C(C)C)CC1=O", "IC50": "100 to 1000 nM"}
{"Compound": "CCn1c(-c2cccnc2[C@H](C)OC)c2c3cc(ccc31)-c1cc(O)cc(c1)C[C@H](NC(=O)[C@H](C(C)C)N(C)C(=O)C1CCNCC1)C(=O)N1CCC[C@H](N1)C(=O)OCC(C)(C)C2", "IC50": "1000 to 10000 nM"}
{"Compound": "CCn1c(-c2cnccc2COC)c2c3cc(ccc31)-c1cc(O)cc(c1)C[C@H](NC(=O)[C@H](C(C)C)N(C)C(=O)[C@H]1CCN(C(=O)OC)C1)C(=O)N1CCC[C@H](N1)C(=O)OCC(C)(C)C2", "IC50": "10 to 100 nM"}
{"Compound": "C=CC(=O)N1CC[C@H](C(=O)N(C)[C@H](C(=O)N[C@H]2C[C@H]3CN(CCO3)c3ccc4c(c3)c(c(-c3cccnc3[C@H](C)OC)n4CC)CC(C)(C)COC(=O)[C@@H]3CCCN(N3)C2=O)C(C)C)C1 (racemic)", "IC50": "1000 to 10000 nM"}
{"Compound": "CCn1c(-c2cccnc2[C@H](C)OC)c2c3cc(ccc31)-c1cc(O)cc(c1)C[C@H](NC(=O)[C@H](C(C)C)N(C)C(=O)C1CCN3CCOCC13)C(=O)N1CCC[C@H](N1)C(=O)OCC(C)(C)C2 (stereo partly drawn)", "IC50": "100 to 1000 nM"}

* * *

# Target Or Test System: KRAS G12C (Homo sapiens, UniProt P01116+P62937, G12C)
# Sequence (P01116 1-169 isoform P01116-2 G12C, one chain of several): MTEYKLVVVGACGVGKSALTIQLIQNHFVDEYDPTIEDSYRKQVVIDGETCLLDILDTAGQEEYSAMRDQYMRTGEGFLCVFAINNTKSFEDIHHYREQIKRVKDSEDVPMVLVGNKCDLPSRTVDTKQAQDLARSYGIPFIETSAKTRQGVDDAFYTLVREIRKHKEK
# Protocol Summary: Disruption of BRAF RBD interaction with Ras (FRET / MOA assay, with Cyclophilin A)
# Type: biochemical
# Measurement Parameters: read-out: KRAS G12C FRET data, IC50
// reported IC50 for each item listed
Measured Property: IC50

{"Smiles Code": "CCn1c(-c2cccnc2[C@H](C)OC)c2c3cc(ccc31)-c1csc(n1)C[C@H](NC(=O)[C@H](C(C)C)N(C)C(=O)N1CC([C@H](C)NC)C1)C(=O)N1CCC[C@H](N1)C(=O)OCC(C)(C)C2", "Recorded Value": "0.1 to 1 µM"}
{"Smiles Code": "CCn1c(-c2cnccc2COC)c2c3cc(ccc31)-c1cc(O)cc(c1)C[C@H](NC(=O)[C@H](C(C)C)N(C)C(=O)CN1CCOCC1)C(=O)N1CCC[C@H](N1)C(=O)OCC(C)(C)C2", "Recorded Value": "0.1 to 1 µM"}
{"Smiles Code": "CCn1c(-c2cnccc2COC)c2c3cc(ccc31)-c1cc(O)cc(c1)C[C@H](NC(=O)[C@H](C(C)C)N(C)C(=O)[C@@H]1CN(C(C)=O)C[C@@H]1C(F)(F)F)C(=O)N1CCC[C@H](N1)C(=O)OCC(C)(C)C2", "Recorded Value": "0.1 to 1 µM"}
{"Smiles Code": "CCn1c(-c2cccnc2[C@H](C)OC)c2c3cc(ccc31)-c1csc(n1)C[C@H](NC(=O)[C@H](C(C)C)N(C)C(=O)O[C@H]1CCOC1)C(=O)N1CCC[C@H](N1)C(=O)OCC(C)(C)C2", "Recorded Value": "0.1 to 1 µM"}
{"Smiles Code": "CCn1c(-c2cccnc2[C@H](C)OC)c2c3cc(ccc31)-c1csc(n1)C[C@H](NC(=O)[C@H](C(C)C)N(C)C(=O)N1CCN(C(=O)CCN(C)C)CC1)C(=O)N1CCC[C@H](N1)C(=O)OCC(C)(C)C2", "Recorded Value": "0.01 to 0.1 µM"}
